All values here come from patent US12577259B2.

Biological target: PCSK9 (Homo sapiens, UniProt Q8NBP7)
Construct: biotin (biotinylated); purchased
Sequence (Q8NBP7 153-692): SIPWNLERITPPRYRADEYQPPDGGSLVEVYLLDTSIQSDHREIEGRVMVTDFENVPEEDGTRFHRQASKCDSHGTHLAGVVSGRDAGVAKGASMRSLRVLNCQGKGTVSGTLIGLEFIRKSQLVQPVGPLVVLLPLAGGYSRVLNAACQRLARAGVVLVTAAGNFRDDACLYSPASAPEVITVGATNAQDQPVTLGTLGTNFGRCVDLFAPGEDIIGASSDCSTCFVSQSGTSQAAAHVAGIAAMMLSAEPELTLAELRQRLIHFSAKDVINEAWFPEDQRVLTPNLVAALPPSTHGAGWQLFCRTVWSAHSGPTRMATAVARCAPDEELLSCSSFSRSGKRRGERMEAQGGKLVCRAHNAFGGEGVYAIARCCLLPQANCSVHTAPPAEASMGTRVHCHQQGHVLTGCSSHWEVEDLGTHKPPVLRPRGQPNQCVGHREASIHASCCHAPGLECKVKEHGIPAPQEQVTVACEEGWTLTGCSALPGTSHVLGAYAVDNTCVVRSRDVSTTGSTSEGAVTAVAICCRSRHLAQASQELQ
Assay: PCSK9 Alexa FRET Ultra TR-FRET assay
Type: binding
Conditions: Ki Ultra; biotinylated PCSK9 0.5 nM, 960 nM AF cyclic peptide; Ki calculated from IC50 and KD of AF peptide; read-out: Alexa FRET Ultra TR-FRET
readout type: Ki (pM)
Lab book: enter the figure in pM, no units written.

### Prompt Name the value of Ki reported for `COc1ccc(C[C@@H]2NC(=O)[C@H]([C@@H](C)OCc3cn(CCNC(=O)CCOCCOCC[N+](C)(C)C)nn3)NC(=O)[C@@H]3[C@@H]4CCN3C(=O)[C@@H]3Cc5cn(c6ccc(F)cc56)CCCCCCN(Cc5ccc(cc5)CCNC(=O)[C@]5(C)CCCN5C2=O)C(=O)CCC(=O)N[C@@H](C)C(=O)N[C@H](CNC(=O)COCCOCCNC(=O)COCCOCCNC(=O)CC[C@H](NC(=O)CCCCCCCCCCCCCCCCC(=O)O)C(=O)O)C(=O)N[C@@H](Cc2cccc(c2)CNC(=O)CO4)C(=O)N3)cc1` when tested on PCSK9 (Homo sapiens, UniProt Q8NBP7).
### Response 4
